# TEST: amyloid nucleation score (Sup35N fusion, yeast selection) (log enrichment); library NNK3; higher = more nucleation; inactive = no reads after selection;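 note: zero at mode of non-aggregating sequences after 7 days selection at 30°C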
PROPERTY: amyloid nucleation score

Check out these entries, answers already filled in.
YIAGFQFCSIIFQRRTVQLL	inactive
FLIIDAVLEPVGLLFFTKFS	inactive
VNILVFLCFAPSLSSRYWWL	2.28
GVLCMWHLCFDVCDGKIIGG	1.74
LGQFQCQE	inactive

Now look at this one.
Can you share its amyloid nucleation score? I mean this substance: "NYRPRKKVFGLR"
-0.005

----------
# TEST: amyloid nucleation score (Sup35N fusion, yeast selection) (log enrichment); library NNK3; higher = more nucleation; inactive = no reads after selection
PROPERTY: amyloid nucleation score

SLGFCKVGALLRWFCSQCQG	0.561
DNCFRKWT	inactive
ADPSMVNVICHGLSDRGSY	inactive
MWRPSHTYCLSNGKVECREC	inactive
CWKQGLNRYLWW	0.752

Can you share its amyloid nucleation score? I mean this sequence: "LCAFHKRNRQEVACVMFVKS"
inactive

And then "LYIWSIGLLEQLGNGMQASR" , what is it?
inactive

And then "FGVCSLFESCIVSFNIVRRL" , what is it?
inactive

And then "VICLLPLT" , what is it?
0.099

And then "APIKIRFD" , what is it?
inactive

And then "AMIINLRMWYNLRIIIMGTR" , what is it?
inactive

----------
# TEST: amyloid nucleation score (Sup35N fusion, yeast selection) (log enrichment); library NNK2; higher = more nucleation; inactive = no reads after selection
Use Yes when the recorded amyloid nucleation score is no lower than -0.3; use No when it is lower.

WTRCPQSRYHVLVRVYSYWA	Yes
RFRLWIVCG	Yes
YMKNSGHDMASLRNIYLIFR	Yes
IRSSWIANVLSANSRGRNNQ	Yes
HNNFIFYFLLNLMICVHYGQ	Yes
VYSANSWH	No
CLMDTGVFREYCS	No
VVWWGVNR	Yes
SSHLGTFLSDRGKSWVSGND	No
FILSQWYKGSECTTCRRLWG	No

Item "SNNWSLDMRRPVFKPPYGEG" with amyloid nucleation score of -0.3 or above?
No

And then "FHLEPLKWSWVST" , what is it?
No

----------
# TEST: amyloid nucleation score (Sup35N fusion, yeast selection) (log enrichment); library NNK2; higher = more nucleation; inactive = no reads after selection
PROPERTY: amyloid nucleation score
Field format: numeric only.

Check out these entries, answers already filled in.
YAFHSSWYADRSALLQLN	0.434
CSAITEGCKGFVHDVSGVML	-0.27

Can you share its amyloid nucleation score? I mean this substance: "TDCMPMHVYGDYYLMGMSRE"
-0.555

And then "VSVDHSDFRLNAVSE" , what is it?
1

And then "PNDHNQLQGPMLSLPPVKQV" , what is it?
-0.359

And then "IAFRTSLYRD" , what is it?
-1.39

----------
The following substances are shown together with reported amyloid nucleation score values.
# TEST: amyloid nucleation score (Sup35N fusion, yeast selection) (log enrichment); library NNK1; higher = more nucleation; inactive = no reads after selection
Field format: numeric only.

Check out these entries, answers already filled in.
KCYGVETTYALA	0.875
IGLFWSFVKKIEVIICVGML	0.665

Can you share its amyloid nucleation score? I mean this substance: "HHDMGSFFAVQSTSGTEGMG"
-0.099

And then "LLYSERTIIPVDRYT" , what is it?
-0.686

And then "SYTRPILIWSLNRFSAG" , what is it?
1.26

And then "VYNWRLMEYHRGWDHFCYLS" , what is it?
-0.559

And then "EKLKMVVGWVVPLSAHMQEY" , what is it?
0.609

And then "YSISFSYHGVVCGSGSNRGV" , what is it?
-0.589

And then "YKYINSVQIYEHV" , what is it?
4.19

And then "AAGHVAVAIRNRVVIARSRT" , what is it?
3.4

And then "LSGLRNVLPLLTMYASIMKV" , what is it?
0.688

And then "ILVSQCRRLVYFVGSVCFST" , what is it?
0.622

And then "VRGHKWVAWNWMRVARAEQE" , what is it?
-0.257

----------
# TEST: amyloid nucleation score (Sup35N fusion, yeast selection) (log enrichment); library NNK3; higher = more nucleation; inactive = no reads after selection
PROPERTY: amyloid nucleation score

IKSLFVGGFSLNVTPTHKGR	1.57
LPLFRISAPMVMYVLLYVPW	inactive
TTGPYLSATEHTVGHLR	inactive
LYISNFANEINA	inactive
YKTYKYERLCIFVLSQRESI	inactive

Can you share its amyloid nucleation score? I mean this sequence: "CRFWGFDSSINEVGLMQNHL"
inactive

And then "KMWCNGMAISLHVRRLCQV" , what is it?
inactive

And then "SVLHLWGLDYFNGEYTMRKG" , what is it?
1.02

And then "WVLLRWAGY" , what is it?
-0.611

And then "SRQGVNQKRTVCWS" , what is it?
inactive

----------
# TEST: amyloid nucleation score (Sup35N fusion, yeast selection) (log enrichment); library NNK2; higher = more nucleation; inactive = no reads after selection
PROPERTY: amyloid nucleation score
Field format: numeric only.

IYFGMDASKIGLLYVVGYSG	0.067
IIWPPMSWELISLNCQCVRK	-0.413
YGPLTIDGFRHAYV	0.95
SIWYSNYNNSRKIPSAYKKW	2.34
WHGTDHKIVGQDIVVVYSAV	0.491
KGYGIHFCFRCMDSRCGVS	0.97

Can you share its amyloid nucleation score? I mean this substance: "VDFRFMMHPSEEWMSNHLPR"
1.14

And then "RTMWSIFHYSTVVSRVSTMA" , what is it?
1.23

And then "LSWVRAIS" , what is it?
0.2

And then "NSTLGGVFACYYFALSHAAE" , what is it?
6.41

And then "RFGNCGVTMTRSAGRFRAIS" , what is it?
-0.169

And then "PQGDSMTVCFQLVT" , what is it?
1.28

----------
# TEST: amyloid nucleation score (Sup35N fusion, yeast selection) (log enrichment); library NNK1; higher = more nucleation; inactive = no reads after selection
Use 1.0 when the recorded amyloid nucleation score is no lower than -0.01; use 0.0 when it is lower.

Item "CLHFFTQTTVWCKHVSSQKV" with amyloid nucleation score of -0.01 or above?
1.0

And then "RMSSIKYVMWGHFAIVSTKV" , what is it?
1.0

And then "NDRLFLHGARKLTVLIFVVG" , what is it?
0.0

And then "LLWEPRKFFESNWLSIQSAK" , what is it?
0.0

And then "TVLVYRGFTEGCSHFSWPSN" , what is it?
1.0

And then "YRRWKPIGVMSSSWLICVES" , what is it?
1.0

And then "RHLMLVKYVFGSRELGL" , what is it?
1.0

And then "AAMCLLIWRACRISVDMHMC" , what is it?
0.0

And then "VYAYTRY" , what is it?
1.0

And then "SVESYTKAISIYTIGERIVL" , what is it?
1.0

And then "RDAVFGPAGVLQI" , what is it?
0.0

And then "SYILEKGLQTAYCVC" , what is it?
1.0

And then "CWDSNALADGCAWYKVLMDI" , what is it?
1.0

And then "VCISWLRDTGADC" , what is it?
1.0

And then "SEMSLSRDSCLLSIV" , what is it?
1.0

And then "RVLCCRYN" , what is it?
1.0

And then "QDIARPRYIPSNNRKKTREP" , what is it?
0.0

And then "SDVSYLVNSSNVGLWHL" , what is it?
1.0

And then "GFRRGPVSSSV" , what is it?
1.0

And then "RLYWSCCDRVDTFLCVF" , what is it?
1.0

And then "NHYGSVAGLPPNNHWVSFCV" , what is it?
0.0

And then "LSRTKGKAQCLGQVGRMRVL" , what is it?
1.0

----------
# TEST: amyloid nucleation score (Sup35N fusion, yeast selection) (log enrichment); library NNK1; higher = more nucleation; inactive = no reads after selection
PROPERTY: amyloid nucleation score
Field format: numeric only.

Check out these entries, answers already filled in.
SCACRYSDLVWVINSLRTVA	0.46
CFRFDYVGTYKHMPFR	4.02
IIVGVVNTRDYLYCRNFVYI	2.79
ALVTVIHAPVFYLWNAFYLC	7.4

Can you share its amyloid nucleation score? I mean this substance: "IMVTDKLSTCAETYIDISW"
-0.164

And then "TFLEIKVRD" , what is it?
-0.496

And then "WMLHMASGGTLCEEASVLVV" , what is it?
-0.148

And then "QLRAYEFGWETREELNSRPY" , what is it?
-1.64

And then "NRKAPFNQA" , what is it?
-1.09

And then "IDFKGTKKLLSDRAPVGDST" , what is it?
0.549

And then "SRYYLSRPVLRYG" , what is it?
0.546

And then "SFLLYGLFAYVSAYIRDICA" , what is it?
-0.166
